- TARGET SYSTEM: P-gp (ABCB1) (Homo sapiens)
- Sequence (P08183 whole entry): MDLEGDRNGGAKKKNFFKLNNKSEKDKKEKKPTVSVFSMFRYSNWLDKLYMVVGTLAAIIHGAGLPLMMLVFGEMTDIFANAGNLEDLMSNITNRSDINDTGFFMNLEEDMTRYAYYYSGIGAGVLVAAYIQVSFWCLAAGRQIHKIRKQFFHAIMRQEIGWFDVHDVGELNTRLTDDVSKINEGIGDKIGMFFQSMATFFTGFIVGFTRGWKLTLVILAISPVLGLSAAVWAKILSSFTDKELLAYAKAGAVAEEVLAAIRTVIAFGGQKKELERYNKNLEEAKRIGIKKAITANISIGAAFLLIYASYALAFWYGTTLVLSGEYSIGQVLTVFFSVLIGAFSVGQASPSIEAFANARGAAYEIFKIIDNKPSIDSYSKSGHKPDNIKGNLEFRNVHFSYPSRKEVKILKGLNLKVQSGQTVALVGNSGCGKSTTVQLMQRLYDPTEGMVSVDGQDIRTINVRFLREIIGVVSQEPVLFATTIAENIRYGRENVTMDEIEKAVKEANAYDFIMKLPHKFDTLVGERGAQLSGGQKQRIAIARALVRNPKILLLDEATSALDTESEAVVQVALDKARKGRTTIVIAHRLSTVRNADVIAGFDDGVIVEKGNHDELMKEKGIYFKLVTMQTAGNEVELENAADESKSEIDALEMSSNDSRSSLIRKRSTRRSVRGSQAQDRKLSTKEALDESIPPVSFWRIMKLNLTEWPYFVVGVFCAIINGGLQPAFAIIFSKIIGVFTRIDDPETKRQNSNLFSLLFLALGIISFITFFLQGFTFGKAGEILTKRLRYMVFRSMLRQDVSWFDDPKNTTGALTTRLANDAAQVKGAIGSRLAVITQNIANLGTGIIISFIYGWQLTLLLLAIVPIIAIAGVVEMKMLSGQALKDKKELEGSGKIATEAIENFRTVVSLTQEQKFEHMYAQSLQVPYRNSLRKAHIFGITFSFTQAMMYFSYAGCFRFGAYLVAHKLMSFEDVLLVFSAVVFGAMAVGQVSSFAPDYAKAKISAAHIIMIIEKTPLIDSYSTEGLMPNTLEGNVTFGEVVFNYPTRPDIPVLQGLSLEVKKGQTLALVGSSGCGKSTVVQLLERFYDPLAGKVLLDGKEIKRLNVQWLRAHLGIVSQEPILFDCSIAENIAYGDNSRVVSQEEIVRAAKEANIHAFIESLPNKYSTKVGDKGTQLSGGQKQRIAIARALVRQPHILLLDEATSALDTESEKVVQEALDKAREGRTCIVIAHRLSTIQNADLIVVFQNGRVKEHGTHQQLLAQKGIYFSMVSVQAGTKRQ
- TEST SUMMARY: Inhibition of P-gp in human K562/R7 cells assessed as daunorubicin accumulation at 10 uM incubated fro 1 hr by flow cytometry relative to cyclosporine A
- Type: cell-based
- DETAILS: probe daunorubicin, read-out: Activity
For each of the compounds below, state its inhibition at 1 h, 10 µM.
One number for each entry, in %.

COC(=O)CC[C@@H](C)[C@H]1CC[C@H]2[C@@H]3[C@H](OC(=O)c4ccccc4)CC4CC(=O)CC[C@]4(C)[C@H]3C[C@H](O[C@@H]3CCCCO3)[C@]12C (single isomer, unassigned) : 79.8

Then there is this compound:
Tell me the measured inhibition at 1 h, 10 µM of CC(=O)[C@H]1CC[C@H]2[C@H]3[C@H]([C@H](O[C@@H]4CCCCO4)C[C@]12C)[C@@]1(C)CCC(=O)C[C@H]1C[C@H]3OC(=O)c1ccccc1 , please.
119
